Property measured: melting point

Consider the following illustrative entries.
In [3]: df
Out[3]:
                                   compound  property_measured         result
0  C=CC1C(=O)N(c2ccc(Cl)cc2)C1c1cc(OC)c(OC)c(OC)c1 (stereo not drawn)      melting point  131 to 133 °C
1  COc1ccc(C2CC(=O)N2c2cc(OC)c(OC)c(OC)c2)cc1O (stereo not drawn)      melting point    78 to 80 °C
2  C=CC1C(=O)N(c2ccc(CC)cc2)C1c1cc(OC)c(OC)c(OC)c1 (stereo not drawn)      melting point  110 to 112 °C
3  C=CC1C(=O)N(c2ccc(SC)cc2)C1c1cc(OC)c(OC)c(OC)c1 (stereo not drawn)      melting point  104 to 106 °C
4  C=CC1C(=O)N(c2cc(OC)c(OC)c(OC)c2)C1c1ccc(OCCCC)cc1 (stereo not drawn)      melting point  100 to 102 °C

Lookup: Can you share its melting point? I mean this compound: C=CC1C(=O)N(c2cc(OC)c(OC)c(OC)c2)C1c1ccc(Cl)cc1 (stereo not drawn)
Found: 104 °C

Lookup: Can you share its melting point? I mean this compound: C=CC1C(=O)N(c2cc(OC)c(OC)c(OC)c2)C1c1ccc(Oc2ccccc2)cc1 (stereo not drawn)
Found: 128 to 130 °C

Lookup: Can you share its melting point? I mean this compound: C/C=C/C(O)C1C(=O)N(c2cc(OC)c(OC)c(OC)c2)C1c1ccc(OC)cc1 (stereo not drawn) [Compound 10b]
Found: 143 to 144 °C

----------
Test: Cytotoxicity assay in primary murine mammary epithelial cells (alamar blue)
Type: cell-based, mouse
Settings: female, CD-1, mouse, primary mammary epithelial cells, at the compound's IC50 in MCF-7 cells; 50,000 cells/mL; 72 h; read-out: % Viable cells at IC50
Property measured: viability at 72 h (%)
Entry rule: numbers only, all in %.

Lookup: Can you share its viability at 72 h? I mean this molecule: COc1ccc(/C=C\c2cc(OC)c(OC)c(OC)c2)cc1O [CA-4, Combretastatin A-4, reference compound]
Found: 92.1

----------
Assay: HPLC stability study in phosphate buffers
Type: physicochemical
Conditions: phosphate buffer, pH 9; read-out: half-life (t½)
Known half-life at 14.6 µg/mL of a selection of molecules

In [3]: df
Out[3]:
                                   molecule        property_measured      result
0  C=CC1C(=O)N(c2cc(OC)c(OC)c(OC)c2)C1c1ccc(OC)c(OP(=O)(O)O)c1 (stereo not drawn) [Compound 17b]  half-life at 14.6 µg/mL  > 1440 min

Lookup: Can you share its half-life at 14.6 µg/mL? I mean this molecule: C=CC1C(=O)N(c2cc(OC)c(OC)c(OC)c2)C1c1ccc(OC)c(O)c1 (stereo not drawn) [Compound 7s]
Found: > 1440 min

Lookup: Can you share its half-life at 14.6 µg/mL? I mean this molecule: CCC1C(=O)N(c2cc(OC)c(OC)c(OC)c2)C1c1ccc(OC)c(OP(=O)(O)O)c1 (stereo not drawn) [Compound 17c]
Found: > 1440 min

----------
Test system: human MCF-7 breast cancer cells
Experiment: Cell viability (Alamar Blue) antiproliferative assay in MCF-7 cells
Format: cell-based
Conditions: Homo sapiens, MCF7, 72 h, human MCF-7 breast cancer cells; 72 h; mean ± SEM; read-out: Antiproliferative Activity IC50
Known log10 IC50 of a selection of compounds
Note: values are log10 of IC50 expressed in µM.

Consider the following illustrative entries.
>>> df
                                   compound                  subject_of_test  property_measured  number
0  C=CC1C(=O)N(c2ccc(NC(C)=O)cc2)C1c1cc(OC)c(OC)c(OC)c1 (stereo not drawn)  human MCF-7 breast cancer cells         log10 IC50    0.60
1  C=CC1C(=O)N(c2ccccc2)C1c1cc(OC)c(OC)c(OC)c1 (stereo not drawn)  human MCF-7 breast cancer cells         log10 IC50    1.70
2  COc1ccc(C2C(C(C)=O)C(=O)N2c2cc(OC)c(OC)c(OC)c2)cc1O (stereo not drawn)  human MCF-7 breast cancer cells         log10 IC50   -0.38

Lookup: Can you share its log10 IC50? I mean this compound: C=CC1C(=O)N(c2cc(OC)c(OC)c(OC)c2)C1c1ccc(C#N)cc1 (stereo not drawn)
Found: 0.80

Lookup: Can you share its log10 IC50? I mean this compound: C=CC1C(=O)N(c2ccc(Cl)cc2)C1c1cc(OC)c(OC)c(OC)c1 (stereo not drawn)
Found: 1.47

Lookup: Can you share its log10 IC50? I mean this compound: COc1ccc(C2C(C(C)O)C(=O)N2c2cc(OC)c(OC)c(OC)c2)cc1O (stereo not drawn) [Compound 10a]
Found: -1.19

----------
System: NCI 60 cell line panel
Test: NCI60 cell line screen (SRB assay), whole panel or sub-panels
Type: cell-based
Details: mean over the total NCI 60 cell line panel
Description: The results are summarized in Tables S3–S5, Supplementary Information. Table S5: NCI 60 cell line mean screening results for selected compounds NCI Ref. Compound GI50 TGI LC50 […] a GI50 and LC50 are the mean concentrations required to inhibit the growth and kill 50 % of the cells over the total NCI 60 cell line panel in the assay respectively. […] over the total NCI 60 cell line panel.
Property measured: TGI (mean) (µM)
Entry rule: numbers only, all in µM.

>>> print(df.to_string())
                                   compound  property_measured  result_unit  number
0  C=CC1C(=O)N(c2cc(OC)c(OC)c(OC)c2)C1c1ccc(OC)c(OP(=O)(O)O)c1 (stereo not shown) [Compound 17b]         TGI (mean)           µM   36.30
1  CCC1C(=O)N(c2cc(OC)c(OC)c(OC)c2)C1c1ccc(OC)c(OP(=O)(O)O)c1 (stereo not shown) [Compound 17c]         TGI (mean)           µM   43.65
2  COc1ccc(/C=C\c2cc(OC)c(OC)c(OC)c2)cc1O [CA-4, Combretastatin A-4, reference compound]         TGI (mean)           µM   10.30

Lookup: Can you share its TGI (mean)? I mean this compound: C=CC1C(=O)N(c2cc(OC)c(OC)c(OC)c2)C1c1ccc(OC)c(O)c1 (stereo not shown)
Found: 5.89

Lookup: Can you share its TGI (mean)? I mean this compound: COc1ccc(C2CC(=O)N2c2cc(OC)c(OC)c(OC)c2)cc1OP(=O)(O)O (stereo not shown) [Compound 17a]
Found: 39.8

Lookup: Can you share its TGI (mean)? I mean this compound: C=CC1C(=O)N(c2cc(OC)c(OC)c(OC)c2)C1c1ccc(OC)cc1 (stereo not shown)
Found: 23.44

Lookup: Can you share its TGI (mean)? I mean this compound: C=CC1C(=O)N(c2cc(OC)c(OC)c(OC)c2)C1c1ccc(OC)c(N)c1 (stereo not shown)
Found: 50.12

----------
System: human MCF-7 breast cancer cells
Assay: Cell viability (Alamar Blue) antiproliferative assay in MCF-7 cells
Type: cell-based
Conditions: Homo sapiens, MCF7, 72 h, human MCF-7 breast cancer cells; 72 h; mean ± SEM; read-out: Antiproliferative Activity IC50
// classify: if (IC50 < 0.4 µM) 1 (yes) else 0 (no)

>>> df
                                   compound  label_value
0  COc1ccc(C2C(C(C)(C)O)C(=O)N2c2cc(OC)c(OC)c(OC)c2)cc1O (stereo not shown) [Compound 10d]       0 (no)
1  C=CC1C(=O)N(c2cc(OC)c(OC)c(OC)c2)C1c1ccc(OC)c(NC(=O)C(C)N)c1 (stereo not shown)       0 (no)
2  COc1ccc(C2CC(=O)N2c2cc(OC)c(OC)c(OC)c2)cc1OP(=O)(O)O (stereo not shown) [Compound 17a]      1 (yes)
3  COc1ccc(C2C(C(O)C=Cc3ccccc3)C(=O)N2c2cc(OC)c(OC)c(OC)c2)cc1O (stereo not shown) [Compound 10f]      1 (yes)
4  C=CC1C(=O)N(c2cc(OC)c(OC)c(OC)c2)C1c1ccc(OC)c([N+](=O)[O-])c1 (stereo not shown)       0 (no)

Lookup: Say whether its IC50 is strictly beneath 0.4 µM. Entry: C=CC1C(=O)N(c2ccc([N+](=O)[O-])cc2)C1c1cc(OC)c(OC)c(OC)c1 (stereo not shown)
Found: 0 (no)

Lookup: Say whether its IC50 is strictly beneath 0.4 µM. Entry: C=CC1C(=O)N(c2ccc(CC)cc2)C1c1cc(OC)c(OC)c(OC)c1 (stereo not shown)
Found: 0 (no)

Lookup: Say whether its IC50 is strictly beneath 0.4 µM. Entry: C=CC1C(=O)N(c2cc(OC)c(OC)c(OC)c2)C1c1ccc(F)cc1 (stereo not shown)
Found: 0 (no)

Lookup: Say whether its IC50 is strictly beneath 0.4 µM. Entry: C=CC1C(=O)N(c2cc(OC)c(OC)c(OC)c2)C1c1ccc(Oc2ccccc2)cc1 (stereo not shown)
Found: 0 (no)

Lookup: Say whether its IC50 is strictly beneath 0.4 µM. Entry: C=CC1C(=O)N(c2cc(OC)c(OC)c(OC)c2)C1c1ccc(Br)cc1 (stereo not shown)
Found: 0 (no)
